Provenance of the data: ChEMBL document CHEMBL1123572

Tested on: Canis familiaris
Experiment description: The compound was evaluated the change in functional refractory period at 10 mg/kg active dose
Set-up: species or system Canis lupus familiaris
# reported FRP; entries follow
Experimental readout: FRP (%)

INSERT INTO measurements (compound, target_or_system, data_value) VALUES
  ('CCCCCCC[N+](CC)(CC)CCCCc1ccc(Cl)cc1 [CLOFILIUM]', 'Canis familiaris', 22),
  ('CC1=NCCN1CC(O)c1ccc(NS(C)(=O)=O)cc1.Cl (centres undefined)', 'Canis familiaris', 22),
  ('C[n+]1ccn(CC(O)c2ccc(NS(C)(=O)=O)cc2)c1.[Cl-] (centres undefined)', 'Canis familiaris', 21),
  ('CC(C)NCC(O)c1ccc(NS(C)(=O)=O)cc1 (centres undefined) [SOTALOL]', 'Canis familiaris', 16);

====

Test system: Canis familiaris
Experiment description: The compound was evaluated the change in heart rate at 10 mg/kg active dose
Type: functional, Canis lupus familiaris
Experimental readout: HR (%)

INSERT INTO results (compound, target_or_system, data_value) VALUES
  ('C[n+]1ccn(CC(O)c2ccc(NS(C)(=O)=O)cc2)c1.[Cl-] (centres undefined)', 'Canis familiaris', -10),
  ('CC1=NCCN1CC(O)c1ccc(NS(C)(=O)=O)cc1.Cl (centres undefined)', 'Canis familiaris', -23),
  ('CC(C)NCC(O)c1ccc(NS(C)(=O)=O)cc1 (centres undefined)', 'Canis familiaris', -11),
  ('CCCCCCC[N+](CC)(CC)CCCCc1ccc(Cl)cc1', 'Canis familiaris', -18);
